B1: LINE1-full (parent)
chain: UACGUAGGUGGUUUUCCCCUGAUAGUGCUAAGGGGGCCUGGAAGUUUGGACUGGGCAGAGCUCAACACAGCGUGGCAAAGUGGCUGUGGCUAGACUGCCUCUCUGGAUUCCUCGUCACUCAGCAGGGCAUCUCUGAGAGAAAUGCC

Variants of: B1
ASSAY PROTOCOL: self-cleavage, relative activity (ratio to wild type); higher = more cleavage; in vitro, sequencing; the parent is a self-cleaving ribozyme
Reported self-cleavage by item:

Consider the following illustrative entries.
| VARIANT NAME | ENDPOINT RESULT |
| --- | --- |
| U81A A94G | 0.37 |
| U112C U143C | 1.54 |
| A65U A77G | 0.3 |
| C66G U81A | 0.02 |
| U12G A65G | 0.23 |

Prompt line: Write down self-cleavage measured for item G44U A107G
Response line: 1.7

Prompt line: # return recorded self-cleavage for input A50U U100C
Response line: 0.81

Prompt line: Identify the reported self-cleavage for the following entry. A67G C99A
Response line: 0.17
